- System tested: factor D (Homo sapiens)
- Construct: made in house; host or cells: E. coli
- Assay comment: factor D inhibition assay of Biological Example 2
- Assay type: biochemical
Test readout: IC50 (nM)
API: value field is a number in nM; no unit string.

Q: Please give measured IC50 of the following entry: `NCc1nccc(-c2cccc(COc3ccccc3CC(=O)O)c2)c1F`
A: 2

Q: Please give measured IC50 of the following entry: `N[C@H](CCO)c1cccc(-c2cc(COc3ccccc3CC(=O)O)cc(NCC3CC3)c2)c1`
A: 27

Q: Please give measured IC50 of the following entry: `C[C@@H](N)c1cccc(-c2cc(COc3ccccc3CC(=O)O)cc(OCc3nccs3)c2)c1F`
A: 5

Q: Please give measured IC50 of the following entry: `NCc1cccc(-c2cc(CCO)cc(COc3ccccc3CC(=O)O)c2)c1`
A: 15

Q: Please give measured IC50 of the following entry: `NCc1ccc(F)c(-c2cccc(COc3ccccc3CC(=O)O)c2)c1`
A: 1990

----------
- System tested: factor D (Homo sapiens, UniProt P00746)
- Construct: made in house; host or cells: E. coli
- Sequence (P00746 26-253): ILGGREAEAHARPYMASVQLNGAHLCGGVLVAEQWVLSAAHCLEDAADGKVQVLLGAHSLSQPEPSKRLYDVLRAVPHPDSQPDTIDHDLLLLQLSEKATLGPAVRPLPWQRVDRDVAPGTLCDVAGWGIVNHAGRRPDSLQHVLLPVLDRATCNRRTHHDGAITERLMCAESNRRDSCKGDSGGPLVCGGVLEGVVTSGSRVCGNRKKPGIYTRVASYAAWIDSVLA
- Assay comment: factor D inhibition assay of Biological Example 2
- Format: biochemical
Each item that follows carries a reported pIC50.
In simple prose, pIC50 is minus the logarithm base ten of a concentration in moles per litre.

Answered examples (3):
>  <Compound>
NCc1cccc(-c2cc(OCc3ccncc3)cc(C(=O)Nc3ccccc3CC(=O)O)c2)c1

>  <System tested>
factor D (Homo sapiens, UniProt P00746)

>  <pIC50>
7.27

$$$$
>  <Compound>
NCc1cccc(-c2cccc(COc3cc(C4CC4)ccc3CC(=O)O)c2)c1

>  <System tested>
factor D (Homo sapiens, UniProt P00746)

>  <pIC50>
8.05

$$$$
>  <Compound>
NCc1cccc(-c2cc(COc3ccccc3CC(=O)O)cc(C(Nc3ccccc3)C(F)(F)F)c2)c1 (stereo not shown)

>  <System tested>
factor D (Homo sapiens, UniProt P00746)

>  <pIC50>
8.22

$$$$

Q: Please give measured pIC50 of the following entry: N[C@H](CO)c1cccc(-c2cc(COc3ccccc3CC(=O)O)cc(C(O)C(F)(F)F)c2)c1 (single isomer, unassigned) [116-G b) (tr = 3.4 min)]
A: 8.05

----------
- System tested: factor D (Homo sapiens)
- Construct: made in house; host or cells: E. coli
- Assay comment: factor D inhibition assay of Biological Example 2
- Assay type: biochemical
Note to self: IC50 under 7 nM means Y, ties and anything higher get N.

Recorded results for 3 molecules are shown here.
>  <Molecule>
COCCc1cc(COc2ccccc2CC(=O)O)cc(-c2cccc([C@@H](C)N)c2F)c1

>  <System tested>
factor D (Homo sapiens)

>  <Class assignment>
N

$$$$
>  <Molecule>
CCOCc1cc(COc2ccccc2CC(=O)O)cc(-c2cccc([C@@H](C)N)c2)c1

>  <System tested>
factor D (Homo sapiens)

>  <Class assignment>
N

$$$$
>  <Molecule>
C[C@H](N)c1cccc(-c2cc(COc3ccccc3CC(=O)O)cc(NCC3CCCC3)c2)c1F

>  <System tested>
factor D (Homo sapiens)

>  <Class assignment>
Y

$$$$

Q: Check if IC50 falls below 7 nM for `C[C@@H](N)c1cccc(-c2cc(COc3ccccc3CC(=O)O)cc(S(C)(=O)=O)c2)c1` .
A: N

Q: Check if IC50 falls below 7 nM for C[C@@H](N)c1cccc(-c2cc(COc3ccccc3CC(=O)O)cc(OCC3CCCN3)c2)c1 (stereo partly shown) .
A: N

Q: Check if IC50 falls below 7 nM for `N[C@H](CO)c1cccc(-c2cc(COc3ccccc3CC(=O)O)ccc2F)c1` .
A: N

Q: Check if IC50 falls below 7 nM for `NCc1cccc(-c2cc(COc3ccccc3CC(=O)O)cc(OC[C@H]3CCCO3)c2)c1` .
A: Y

Q: Check if IC50 falls below 7 nM for NCc1cccc(-c2ccc3c(c2)C(Oc2ccccc2CC(=O)O)CCC3)c1 (single isomer, unassigned) [175 b) (tr = 4.1 min)] .
A: Y

Values from patent US20160145247A1
